test system: 7-day biofilm formed using P. aeruginosa; assay: MBEC test, 7-day biofilm, one hour biocide challenge; assay type: cell-based, Pseudomonas aeruginosa; conditions: 1 hour contact
REPORTED_PROPERTY: MBEC on 7-day biofilm

The measured MBEC on 7-day biofilm associated with `O=c1n(Cl)c(=O)n(Cl)c(=O)n1Cl` reads 20 ppm

For record `CCCCCCCCCCCCN` the listed MBEC on 7-day biofilm is 75 ppm

Noted for CCCCCCCCCC[N+](C)(C)CCCCCCCCCC.[Cl-] [DAQ 1010, Didecyldimethyl ammonium chloride] : its MBEC on 7-day biofilm reads 75 ppm

* * *

test system: Pseudomonas aeruginosa (ATCC 15442) biofilms; assay: MBEC test, 24-hour biofilm, one hour biocide challenge; format: cell-based; conditions: Pseudomonas aeruginosa, ATCC15442, 1 h, 24-hour biofilm, 1 hour contact; average of duplicate runs; blends: total amount of components (1:1 ratio); read-out: MBEC, avg.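 Also: Peg-grown biofilms exposed to biocide, then regrowth in broth 18 h at 35 °C, turbidity by absorbance at 650 nm, above 0.100 counted as growth.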
REPORTED_PROPERTY: minimum biofilm eradication concentration (MBEC) (µg/mL)
Give a bare numeral; the unit µg/mL is implied.

Reported Pseudomonas aeruginosa (ATCC 15442) biofilms minimum biofilm eradication concentration (MBEC) for item CCCCCCCCCCCCCCN [1-Tetradecylamine] was 25

Entry CCCCCCCCCCN [1-Decylamine] : minimum biofilm eradication concentration (MBEC) on Pseudomonas aeruginosa (ATCC 15442) biofilms = 200

Response field minimum biofilm eradication concentration (MBEC) (Pseudomonas aeruginosa (ATCC 15442) biofilms) for item CCCCCCCCNCCCCCCCC [N,N-Dioctylamine] : 1600

Readout minimum biofilm eradication concentration (MBEC) for CCCCCCCCCCCCCCCCN [1-Hexadecylamine] , test system Pseudomonas aeruginosa (ATCC 15442) biofilms, was 200

Per the reported Pseudomonas aeruginosa (ATCC 15442) biofilms data, O=CCCCC=O [glutaraldehyde, reference compound] has minimum biofilm eradication concentration (MBEC) of 50
